Kindly state Cl for each of the entries shown.
Species on record: Rattus norvegicus
ASSAY_INFO: Open TG-GATES - Regimen: Daily Repeat
Type: toxicity, organism-based, Sprague-Dawley
Set-up: regimen Daily Repeat, gender Male, age 6 weeks
RUN_CONDITIONS: in vivo, po, 100 mg/kg, […], tissue Plasma, route gavage, dose level Low, time 28 day
Lab book: enter the figure in meq/L, no units written.

Item: CNC(=C[N+](=O)[O-])NCCSCc1ccc(CN(C)C)o1 [RANITIDINE] | Cl: 103.2

response.value for Cc1nnc2n1-c1ccc(Cl)cc1C(c1ccccc1Cl)=NC2 [TRIAZOLAM] (field: Cl) = 105

Cl measured on CCOc1ccc(NC(C)=O)cc1 [PHENACETIN] = 105.6

Sure, the documented Cl for CN/C(=N/CCSCc1nc[nH]c1C)NC#N [CIMETIDINE] is 101.6

Form: molecule = O=C(OC[C@H]1O[C@@H](OC(=O)c2cc(O)c(O)c(OC(=O)c3cc(O)c(O)c(O)c3)c2)[C@H](OC(=O)c2cc(O)c(O)c(OC(=O)c3cc(O)c(O)c(O)c3)c2)[C@@H](OC(=O)c2cc(O)c(O)c(OC(=O)c3cc(O)c(O)c(O)c3)c2)[C@@H]1OC(=O)c1cc(O)c(O)c(OC(=O)c2cc(O)c(O)c(O)c2)c1)c1cc(O)c(O)c(OC(=O)c2cc(O)c(O)c(O)c2)c1 [TANNIC ACID] ; Cl = 106.4

Given item COC(=O)C1=C(C)NC(C)=C(C(=O)OC)C1c1ccccc1[N+](=O)[O-] [NIFEDIPINE] , the value recorded as its Cl is 107.4
